- target or system: T1, full-length recombinant human PAD4 (human, UniProt Q9UM07 1-663)
- T1 construct: Full-length recombinant; also called peptidylarginine deiminase 4
- T1 sequence (Q9UM07 whole entry): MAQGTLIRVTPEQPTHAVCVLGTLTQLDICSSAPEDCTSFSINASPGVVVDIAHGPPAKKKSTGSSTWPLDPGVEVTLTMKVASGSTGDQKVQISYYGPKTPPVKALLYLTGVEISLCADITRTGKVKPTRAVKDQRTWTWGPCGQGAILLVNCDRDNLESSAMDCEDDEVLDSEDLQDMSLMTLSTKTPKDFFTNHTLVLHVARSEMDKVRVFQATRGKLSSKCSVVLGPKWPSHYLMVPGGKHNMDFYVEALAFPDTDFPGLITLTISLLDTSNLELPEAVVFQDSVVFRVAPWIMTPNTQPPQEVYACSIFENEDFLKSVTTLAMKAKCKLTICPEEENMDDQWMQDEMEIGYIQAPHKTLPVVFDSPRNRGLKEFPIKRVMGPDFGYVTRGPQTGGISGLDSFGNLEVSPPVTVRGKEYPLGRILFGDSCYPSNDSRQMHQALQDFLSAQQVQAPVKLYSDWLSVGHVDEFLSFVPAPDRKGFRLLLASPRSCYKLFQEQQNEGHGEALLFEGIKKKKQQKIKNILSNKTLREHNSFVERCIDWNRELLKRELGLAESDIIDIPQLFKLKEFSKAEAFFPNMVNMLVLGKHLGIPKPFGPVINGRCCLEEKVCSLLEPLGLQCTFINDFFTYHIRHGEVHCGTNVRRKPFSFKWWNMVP
- method summary: ELISA, immobilized human PAD4
# O.D. 490/630 at 0.0078125 µg/mL per entry
Format: numeric value only, no unit, no commentary.

humanized anti-PAD4 antibody derived from G8, VH H4.15 / VL L4.06 (antibody, human IgG1, kappa, V domains shown, IgG1 kappa; also called G8 H4.15/L4.06) VH: EVQLLESGGGLVQPGGSLRLSCAASGFTFSTYAMGWVRQAPGKGLEFVSAIRNDGSWTGYGAAVKGRFTISRDNSKNTVYLQMNSLRAEDTAVYYCAKYTGSSGGSIGAWGQGTLVTVSS VL: SYELTQPPSVSVSPGQTARITCSGGNRNYYYGWYQQKPGQAPVTVIYANDKRPSGIPERFSGSYSGNTTTLTISGVQAEDEADYYCGTADTGKYVFGGGTKLTVLG: 1.31

Please find the next binder below.
Tell me the measured O.D. 490/630 at 0.0078125 µg/mL of humanized anti-PAD4 antibody derived from H7, VH H4.15 / VL L4.17 (antibody, IgG1, V domains shown, IgG1 kappa; also called H7 H4.15/L4.17) VH: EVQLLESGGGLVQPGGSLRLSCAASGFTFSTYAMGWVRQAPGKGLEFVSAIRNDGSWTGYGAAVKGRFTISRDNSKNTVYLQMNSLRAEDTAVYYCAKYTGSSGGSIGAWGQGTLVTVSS VL: SYELTQPPSVSVSPGQTARITCSGGSGRYYYGWYQQKPGQAPVTVIYSSTHRPSGIPERFSGSTSGNTTTLTISGVQAEDEADYYCGTADSSSYVFGGGTKLTVLG , please.
1.31
